In this section, each of the binders is paired with its reported OD 450 nm.
target: T1, cTnI quality control product recombinant protein (human, UniProt P19429 1-210, limits assumed); assay: capture ELISA, antibody 1.372 ng/ml, cTnI 0.15 ug/ml
T1 construct: the assay paragraphs only say cTnI; also called cardiac troponin I; cTnI antigen
T1 sequence (P19429 whole entry): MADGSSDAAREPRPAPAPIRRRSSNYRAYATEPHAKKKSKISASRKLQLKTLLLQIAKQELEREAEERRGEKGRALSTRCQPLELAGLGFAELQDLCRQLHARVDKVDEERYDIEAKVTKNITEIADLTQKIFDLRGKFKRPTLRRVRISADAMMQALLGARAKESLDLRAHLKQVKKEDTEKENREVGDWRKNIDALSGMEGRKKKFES
Respond numerically; units are OD and should not be typed.

Incoming: Consider the binder Mutation 3 (antibody, V domains shown, other CDR sites as WT) VH: QVQLQQSGTELAKPGASVKFSCKASIYTFSTYWMYWIKQRPGQGLEWIGYLNPSSGHTGYNQRFKDKATLTADKSSSTAYMQLNSLTSEDSAVYYCARKYFGPFVMDYWGQGTSVTVSS VL: EIFLTQSPAIMSASPGEKVTMTCSASTTVSYIHWYQQKSGTSPKRWLYDTSKIASGIPVRFSGSGSGTSYSLTISSMEAEDAATYYCQRWSTQPYTFGGGTKLEIKR and give its measured OD 450 nm.
Outgoing: 0.367

Incoming: Any idea what its OD 450 nm is? The binder is Anti-cTnI 7B9 monoclonal antibody (recombinant, Sample 1) (antibody, mouse IgG1, kappa, V domains shown, Recombinant mouse antibody expressed in CHO cells; also called WT; Anti-cTnI 7B9 antibody) VH: QVQLQQSGTELAKPGASVKFSCKASDYTFSTYWMYWIKQRPGQGLEWIGYLNPSSGHTEYNQRFKDKATLTADKSSSTAYMQLNSLTSEDSAVYYCARKYFGPFAMDYWGQGTSVTVSS VL: EIFLTQSPAIMSASPGEKVTMTCSASTTVSYAHWYQQKSGTSPKRWLYDSSKIASGIPVRFSGSGSGTSYSLTISSMEAEDAATYYCQNWSTQPYTFGGGTKLEIKR
Outgoing: 0.174

Incoming: I'd like to know its OD 450 nm. The binder in question is Mutation 1 (antibody, V domains shown, other CDR sites as WT) VH: QVQLQQSGTELAKPGASVKFSCKASGYTFSTYWMYWIKQRPGQGLEWIGYLNPSSGHTDYNQRFKDKATLTADKSSSTAYMQLNSLTSEDSAVYYCARKYFGPFGMDYWGQGTSVTVSS VL: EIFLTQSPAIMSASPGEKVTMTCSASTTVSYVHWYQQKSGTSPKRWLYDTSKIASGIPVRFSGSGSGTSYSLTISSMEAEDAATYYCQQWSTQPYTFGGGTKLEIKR
Outgoing: 1.03

Incoming: For the binder Mutation 2 (antibody, V domains shown, other CDR sites as WT) VH: QVQLQQSGTELAKPGASVKFSCKASLYTFSTYWMYWIKQRPGQGLEWIGYLNPSSGHTEYNQRFKDKATLTADKSSSTAYMQLNSLTSEDSAVYYCARKYFGPFIMDYWGQGTSVTVSS VL: EIFLTQSPAIMSASPGEKVTMTCSASTTVSYAHWYQQKSGTSPKRWLYDTSKIASGIPVRFSGSGSGTSYSLTISSMEAEDAATYYCQVWSTQPYTFGGGTKLEIKR , what OD 450 nm is on record?
Outgoing: 0.528

Values from patent US20220033483A1
